# measurement_target: human HSL (Homo sapiens, UniProt Q05469)
# Construct: generate a full length human HSL ORF with a 3′-His6 tag
# Sequence (Q05469 1-1076): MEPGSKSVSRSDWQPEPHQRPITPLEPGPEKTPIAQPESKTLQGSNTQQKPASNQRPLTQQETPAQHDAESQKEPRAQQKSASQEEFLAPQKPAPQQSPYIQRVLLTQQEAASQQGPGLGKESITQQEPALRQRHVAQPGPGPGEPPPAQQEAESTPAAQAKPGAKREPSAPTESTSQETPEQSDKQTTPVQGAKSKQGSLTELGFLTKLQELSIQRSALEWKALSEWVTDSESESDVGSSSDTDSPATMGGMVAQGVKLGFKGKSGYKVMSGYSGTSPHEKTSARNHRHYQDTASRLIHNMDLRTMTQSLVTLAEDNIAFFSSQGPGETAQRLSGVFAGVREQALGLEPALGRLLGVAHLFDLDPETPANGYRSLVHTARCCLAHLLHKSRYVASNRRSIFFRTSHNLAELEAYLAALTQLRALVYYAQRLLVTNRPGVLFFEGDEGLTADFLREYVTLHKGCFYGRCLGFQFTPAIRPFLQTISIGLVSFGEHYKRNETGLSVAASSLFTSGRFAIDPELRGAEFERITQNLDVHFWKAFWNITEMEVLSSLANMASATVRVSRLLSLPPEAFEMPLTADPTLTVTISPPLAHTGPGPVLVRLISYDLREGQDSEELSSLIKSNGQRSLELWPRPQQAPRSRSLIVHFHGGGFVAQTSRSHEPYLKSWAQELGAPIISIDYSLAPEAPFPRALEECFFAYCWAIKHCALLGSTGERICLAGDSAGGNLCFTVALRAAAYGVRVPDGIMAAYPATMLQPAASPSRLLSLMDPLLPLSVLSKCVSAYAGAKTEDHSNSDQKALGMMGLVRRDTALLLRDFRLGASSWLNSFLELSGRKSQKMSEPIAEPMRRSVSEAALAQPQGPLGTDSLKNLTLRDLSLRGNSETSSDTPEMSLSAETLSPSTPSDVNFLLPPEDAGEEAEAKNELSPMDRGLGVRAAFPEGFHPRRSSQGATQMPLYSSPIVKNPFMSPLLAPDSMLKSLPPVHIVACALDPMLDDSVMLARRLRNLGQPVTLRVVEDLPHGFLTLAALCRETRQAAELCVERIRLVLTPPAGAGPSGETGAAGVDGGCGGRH
# assay_notes: Human Hormone-Sensitive Lipase (HSL) enzyme inhibition assay (colorimetric, DMPT substrate)
# conditions: human full length HSL-His6, 2,3-dimercapto-1-propanol tributyrate substrate, 37° C. 20 minutes, absorbance at 405 nm; read-out: HSL hum IC50
assay_readout: IC50 (nM)

>>> quantitative_result("CC1(COC[C@]2(O)CC[C@]3(CCN(c4ccc(OCC(F)(F)F)cc4)C3=O)CC2)COC1 [Example 260]")
60
>>> quantitative_result("CCc1ccc(N2CC[C@]3(CC[C@@H](OCc4ccccc4)CC3)C2=O)cc1 [Example 4]")
240
>>> quantitative_result("COCC[C@]1(OC)CC[C@]2(CCN(c3ccc(OC(F)(F)F)cc3)C2=O)CC1 [Example 120]")
100
>>> quantitative_result("CC(C)S(=O)(=O)C[C@]1(O)CC[C@]2(CCN(c3ccc(C(C)(C)C)cc3)C2=O)CC1 [Example 333]")
8
>>> quantitative_result("CC[C@]1(O)CC[C@]2(CCN(c3ccc(OC(C)C(F)(F)F)cc3)C2=O)CC1 (some centres unmarked) [Example 165]")
20
>>> quantitative_result("CCCOC[C@]1(O)CC[C@]2(CCN(c3ccc(OCC(F)(F)F)cc3)C2=O)CC1 [Example 236]")
20
>>> quantitative_result("CCCc1ccc(N2CC[C@]3(CC[C@](O)(CC)CC3)C2=O)cc1 [Example 84]")
4300
>>> quantitative_result("CCc1ccc(N2CC[C@]3(CC[C@@](O)(COC)CC3)C2=O)cc1 [Example 224]")
150

====

# measurement_target: human HSL (Homo sapiens, UniProt Q05469)
# Construct: generate a full length human HSL ORF with a 3′-His6 tag
# assay_notes: Human Hormone-Sensitive Lipase (HSL) enzyme inhibition assay (colorimetric, DMPT substrate)
# conditions: human full length HSL-His6, 2,3-dimercapto-1-propanol tributyrate substrate, 37° C. 20 minutes, absorbance at 405 nm; read-out: HSL hum IC50
# Description: Production of Human Full Length Hormone Sensitive Lipase-His^6: 1) Cloning: cDNA was prepared from commercial human brain polyA+ RNA and used as a template in overlapping PCR to generate a full length human HSL ORF with a 3′-His6 tag. […] The protein concentration was calculated from absorbance at 280 nm, using 280=0.67 cm-1 mg-1. […] HSL enzyme activity was measured by a colorimetric assay using 2,3-dimercapto-1-propanol tributyrate (Aldrich, St. Louis, Mo.) as a substrate. […]
assay_readout: IC50

>>> result("C[C@H](Oc1ccc(N2CC[C@]3(CC[C@@](O)(C(F)(F)F)CC3)C2=O)cc1)C(F)(F)F [Example 177a]")
"40 nM"
>>> result("O=C1N(c2ccc(OC(F)(F)F)cc2)CC[C@]12CC[C@@H](Oc1ncccn1)CC2")
"100 nM"
>>> result("CCCNC(=O)O[C@H]1CC[C@]2(CCN(c3ccc(CC)cc3)C2=O)CC1")
"1480 nM"
>>> result("O=C1N(c2ccc(CC(F)(F)F)cc2)CC[C@]12CC[C@@](O)(COCC(F)F)CC2")
"10 nM"

====

Some compounds, each annotated with its measured IC50.
# measurement_target: human HSL (Homo sapiens, UniProt Q05469)
# Construct: generate a full length human HSL ORF with a 3′-His6 tag
# assay_notes: Human Hormone-Sensitive Lipase (HSL) enzyme inhibition assay (colorimetric, DMPT substrate)
# conditions: human full length HSL-His6, 2,3-dimercapto-1-propanol tributyrate substrate, 37° C. 20 minutes, absorbance at 405 nm; read-out: HSL hum IC50
assay_readout: IC50 (nM)

>>> quantitative_result("CCC[C@]1(O)CC[C@]2(CCN(c3ccc(OCCOC)cc3)C2=O)CC1 [Example 95]")
240
>>> quantitative_result("CCc1ccc(N2CC[C@]3(CC[C@](O)(COCC(F)F)CC3)C2=O)cc1 [Example 264]")
200
>>> quantitative_result("CC(C)OC[C@]1(O)CC[C@]2(CCN(c3ccc(O[C@H](C)C(F)(F)F)cc3)C2=O)CC1 [Example 310]")
10
>>> quantitative_result("CCC[C@]1(O)CC[C@@]2(CCN(c3ccc(C4CC4)cc3)C2=O)CC1 [Example 76]")
190
>>> quantitative_result("CCC[C@]1(O)CC[C@]2(CCN(c3ccc(C(O)C(F)F)cc3)C2=O)CC1 (some centres unmarked) [Example 195]")
110
>>> quantitative_result("C[C@@H](Oc1ccc(N2CC[C@]3(CC[C@@](O)(COCc4ccccc4)CC3)C2=O)cc1)C(F)(F)F [Example 144]")
10
>>> quantitative_result("CC(C)[C@]1(O)CC[C@]2(CCN(c3ccc([C@@H](O)C(F)(F)F)cc3)C2=O)CC1 [Example 135]")
20
>>> quantitative_result("O=C1N(c2ccc(OC(F)(F)F)cc2)CC[C@]12CC[C@@H](Oc1cnccn1)CC2 [Example 19]")
140

====

Some molecules, each annotated with its measured pIC50.
# measurement_target: human HSL (Homo sapiens, UniProt Q05469)
# Construct: generate a full length human HSL ORF with a 3′-His6 tag
# assay_notes: Human Hormone-Sensitive Lipase (HSL) enzyme inhibition assay (colorimetric, DMPT substrate)
# conditions: human full length HSL-His6, 2,3-dimercapto-1-propanol tributyrate substrate, 37° C. 20 minutes, absorbance at 405 nm; read-out: HSL hum IC50
pIC50: −log10 of the molar value.
assay_readout: pIC50

>>> quantitative_result("C[C@H](Oc1ccc(N2CC[C@]3(CC[C@@](O)(COCC(F)(F)F)CC3)C2=O)cc1)C(F)(F)F")
8.00
>>> quantitative_result("CCC[C@]1(O)CC[C@]2(CCN(c3ccc(O[C@@H](C)C(F)(F)F)nc3)C2=O)CC1")
7.70
>>> quantitative_result("CC(C)(C)c1ccc(N2CC[C@]3(CC[C@@](O)(COc4cccnc4)CC3)C2=O)cc1")
7.30
>>> quantitative_result("O=C1N(c2ccc(OCC(F)(F)F)nc2)CC[C@]12CC[C@@](O)(COCC(F)(F)F)CC2")
7.70
>>> quantitative_result("O=C1N(c2ccc(OCC(F)(F)F)nc2)CC[C@]12CC[C@@](O)(COCC(F)F)CC2")
7.40
>>> quantitative_result("C[C@@H](Oc1ccc(N2CC[C@]3(CC[C@@](O)(C4CC4)CC3)C2=O)cc1)C(F)(F)F [Example 181a]")
7.70
>>> quantitative_result("C=CC[C@]1(O)CC[C@@]2(CCN(c3ccc(O[C@H](C)C(F)(F)F)cc3)C2=O)CC1")
5.83
>>> quantitative_result("CCC[C@]1(O)CC[C@]2(CCN(c3ccc(OCC(F)(F)F)cc3)C2=O)CC1")
7.70
>>> quantitative_result("CCc1ccc(N2CC[C@]3(CC[C@@H](O)CC3)C2=O)cc1")
5.63
>>> quantitative_result("CC(C)SC[C@]1(O)CC[C@]2(CCN(c3ccc(O[C@@H](C)C(F)(F)F)nc3)C2=O)CC1")
8.00
>>> quantitative_result("COC[C@]1(O)CC[C@]2(CCN(c3ccc(C(C)C)cc3)C2=O)CC1")
7.40
>>> quantitative_result("CCC[C@]1(O)CC[C@]2(CCN(c3ccc(S(=O)(=O)CC)cc3)C2=O)CC1")
6.19
>>> quantitative_result("CCOC[C@]1(O)CC[C@@]2(CCN(c3ccc(O[C@H](C)C(F)(F)F)cc3)C2=O)CC1")
6.64
>>> quantitative_result("CCC[C@]1(O)CC[C@]2(CCN(c3ccc(C(C)C)cc3)C2=O)CC1")
7.70
>>> quantitative_result("CC(C)[C@]1(O)CC[C@]2(CCN(c3ccc(O[C@H](C)C(F)(F)F)nc3)C2=O)CC1")
7.70
>>> quantitative_result("C[C@H](Oc1ccc(N2CC[C@]3(CC[C@@](O)(COCC(F)(F)F)CC3)C2=O)cn1)C(F)(F)F")
8.00
